- tgt: T1, CHIKV VLPs (Chikungunya virus, VLP strain not …, UniProt Q5XXP3)
- T1 construct: also called CHIKV virus-like particles
- method.summary: MagPlex direct binding assay
- assay.context: both partners purified
test.readout: binding result

[[record]]
binder = "CC3-m9hop (VHH, Theoretical pI 9.35; also called variant 9) VHH: QVKLQASGGGSVQAGGSLRLSCVTSQNLFEYYTMGWYRQVPGSQRERVALINNGGSTVAGSVKGRFTISRDHAKNSVYLQMNYLKREDSAVYYCRAFGPADYWGQGTQVTVSS"
result = "binds"

[[record]]
binder = "CC3-m2hop (VHH, Theoretical pI 6.35) VHH: EVQLVESGGGSVQAGDSLRLSCVTSQNLFEYYTMGWYRQVPGSQRERVALINNGGSTVAGSVEGRFTISRDHAKNSVYLQMNYLQPEDSAVYYCRAFGPADYWGQGTQVTVSS"
result = "binds"

